Target Or Test System: Tyrosine-protein phosphatase non-receptor type 1 (Homo sapiens, UniProt P18031)
Sequence (P18031 whole entry): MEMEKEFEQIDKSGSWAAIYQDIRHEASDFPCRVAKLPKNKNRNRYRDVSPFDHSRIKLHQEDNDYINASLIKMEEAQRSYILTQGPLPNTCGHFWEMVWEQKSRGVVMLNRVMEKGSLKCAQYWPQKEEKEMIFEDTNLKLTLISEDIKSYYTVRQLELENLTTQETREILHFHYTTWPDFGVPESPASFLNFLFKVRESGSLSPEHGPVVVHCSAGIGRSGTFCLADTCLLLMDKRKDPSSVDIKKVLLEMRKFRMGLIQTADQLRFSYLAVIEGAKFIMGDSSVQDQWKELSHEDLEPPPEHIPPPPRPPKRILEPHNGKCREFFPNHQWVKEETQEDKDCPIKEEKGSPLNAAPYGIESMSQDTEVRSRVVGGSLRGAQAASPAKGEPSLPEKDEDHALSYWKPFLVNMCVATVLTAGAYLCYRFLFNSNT
Method Summary: Inhibition of PTP1B (unknown origin) assessed as reduction in nitrophenol production using pNPP as substrate incubated for 30 mins by EnVisionMultilable plate reader based method
Measured Attribute: IC50 (µM)
Answer in µM, number only, no unit symbol.

Reference set (10 entries):
>>> assay_value("COC(=O)C1=C(C(C)C)NC(=S)N[C@H]1/C=C/c1ccc(C(F)(F)F)cc1")
5.49
>>> assay_value("CCOC(=O)C1=C(C(C)C)NC(=S)N[C@H]1/C=C/c1ccc(Br)cc1")
11.3
>>> assay_value("COC(=O)C1=C(C(C)C)NC(=S)N[C@H]1/C=C/c1ccc(Br)cc1")
6.28
>>> assay_value("CCOC(=O)C1=C(C(C)C)NC(=S)N[C@H]1/C=C/c1ccc(C)cc1")
7.49
>>> assay_value("COC(=O)C1=C(C(C)(C)C)NC(=S)N[C@H]1/C=C/c1ccc([N+](=O)[O-])cc1")
11.4
>>> assay_value("CCOC(=O)C1=C(C(C)C)NC(=S)N[C@H]1/C=C/c1ccc(OC)cc1")
2.38
>>> assay_value("COC(=O)C1=C(C(C)(C)C)NC(=S)N[C@H]1/C=C/c1ccc(Br)cc1")
11
>>> assay_value("COC(=O)C1=C(C(C)(C)C)NC(=S)N[C@H]1/C=C/c1ccc(Cl)cc1")
6.65
>>> assay_value("CCOC(=O)C1=C(C(C)C)NC(=S)N[C@H]1/C=C/c1ccc(C(F)(F)F)cc1")
10.3
>>> assay_value("COC(=O)C1=C(C(C)(C)C)NC(=S)N[C@H]1/C=C/c1ccc(OC)cc1")
5.03

So, COC(=O)C1=C(C(C)C)NC(=S)N[C@H]1/C=C/c1ccc(Cl)cc1 ? Its IC50 was 7.12

So, COC(=O)C1=C(C(C)(C)C)NC(=S)N[C@H]1/C=C/c1ccc(C)cc1 ? Its IC50 was 16.3

So, CCOC(=O)C1=C(C(C)C)NC(=S)N[C@H]1/C=C/c1ccc(Cl)cc1 ? Its IC50 was 4.79

So, COC(=O)C1=C(C(C)C)NC(=S)N[C@H]1/C=C/c1ccc(F)cc1 ? Its IC50 was 3.33

So, COC(=O)C1=C(C(C)C)NC(=S)N[C@H]1/C=C/c1ccccc1 ? Its IC50 was 18.6

So, COC(=O)C1=C(C(C)(C)C)NC(=S)N[C@H]1/C=C/c1ccc(C(F)(F)F)cc1 ? Its IC50 was 6.31
